Numbers sourced from ChEMBL document CHEMBL1201862.

- Test system: Malme-3M
- ASSAY EXPLANATION: NCI tumour cell line growth inhibition, 48 h
The source made the active and inactive calls. No stated cut-off is given here; in the data, active = GI50 up to about 1.1 µM and inactive = higher.
Would you mind answering with one of these outcomes? label 1 for active, label 0 for inactive

Please review the entries below; each comes with its answer.
* COc1cc2c(c(OC)c1OC)-c1ccc(OC)c(=O)cc1C(NC(=O)COc1ccccc1)CC2 (stereo not drawn) | label 1
* COc1ccc(C(=O)/C=C/S/C(=N/C#N)SC)cc1 | label 0
* CC(=O)C1(O)Cc2c(O)c3c(c(O)c2C(OC2CC(N)C(O)C(C)O2)C1)C(=O)c1ccccc1C3=O (stereo not drawn) | label 1

Task: # lookup: test call for `IC[P+]1(c2ccccc2)CCCC1`
Output: label 0

Task: # lookup: test call for [N-]=[N+]=NC1(c2ccccc2)C(=O)c2cccc3c4ccccc4n(c23)C1=O (stereo not drawn)
Output: label 0

Task: # lookup: test call for `O=C1c2ccccc2C(=O)c2c1sc1nc3ccccc3n21`
Output: label 1

Task: # lookup: test call for CC(C)N(C(=O)C12C3C4C1C1C2C3C41I)C(C)C (stereo not drawn)
Output: label 0

Task: # lookup: test call for COC(=O)C1OC2(CCCC3CC32)O[C@H]1C(=O)OC (stereo partly drawn)
Output: label 0
